MEASUREMENT_KIND: melting point

[[record]]
compound = "CC(C)(SN=O)C1COC(=O)N1CCOC(=O)CO/N=C1\\C[C@@H]2[C@H](CC[C@]3(C)[C@@H](O)CC[C@@H]23)c2ccc(O)cc21 (stereo partly shown)"
measurement_kind = "melting point"
reported_value = "75 to 77 °C"

[[record]]
compound = "C[C@]12CC[C@@H]3c4ccc(OCC(=O)OCCC5(SN=O)C6CC7CC(C6)CC5C7)cc4CC[C@H]3[C@@H]1CC[C@@H]2O (stereo partly shown) [Example 36b]"
measurement_kind = "melting point"
reported_value = "48 to 50 °C"

[[record]]
compound = "CC(C)(S)CNC(=O)COc1ccc2c(c1)CC[C@@H]1[C@@H]2CC[C@]2(C)[C@@H](O)CC[C@@H]12"
measurement_kind = "melting point"
reported_value = "50 to 52 °C"

[[record]]
compound = "C[C@]12CC[C@@H]3c4ccc(OC(=O)CCCC(=O)NCC5(SN=O)CCCCC5)cc4CC[C@H]3[C@@H]1CC[C@@H]2O"
measurement_kind = "melting point"
reported_value = "50 to 52 °C"

[[record]]
compound = "C[C@]12CC[C@@H]3c4ccc(OC(=O)c5ccccc5)cc4CC[C@H]3[C@@H]1CC[C@@H]2OC(=O)CCC(=O)O[C@H]1CO[C@H]2[C@@H]1OC[C@H]2O"
measurement_kind = "melting point"
reported_value = "136 to 137 °C"

[[record]]
compound = "C[C@]12CC[C@@H]3c4ccc(O)cc4/C(=N/OCC(=O)N4CCC(CCO[N+](=O)[O-])CC4)C[C@H]3[C@@H]1CC[C@@H]2O"
measurement_kind = "melting point"
reported_value = "102 to 105 °C"

[[record]]
compound = "CC(C)(SN=O)C1COC(=O)N1CCOC(=O)COc1ccc2c(c1)CC[C@@H]1[C@@H]2CC[C@]2(C)[C@@H](O)CC[C@@H]12 (stereo partly shown)"
measurement_kind = "melting point"
reported_value = "40 °C"

[[record]]
compound = "COc1ccc(C=C2c3ccccc3C(=NOCC(=O)NCC(C)(C)SN=O)c3ccccc32)cc1O"
measurement_kind = "melting point"
reported_value = "143 to 145 °C"

[[record]]
compound = "C[C@]12CC[C@@H]3c4ccc(OCC(=O)OCCC5(S)C6CC7CC(C6)CC5C7)cc4CC[C@H]3[C@@H]1CC[C@@H]2O (stereo partly shown)"
measurement_kind = "melting point"
reported_value = "78 to 80 °C"

[[record]]
compound = "CC(C)(CNC(=O)COc1ccc2c(c1)CC[C@@H]1[C@@H]2CC[C@]2(C)[C@@H](O)CC[C@@H]12)SN=O"
measurement_kind = "melting point"
reported_value = "40 °C"

[[record]]
compound = "CN(CCO[N+](=O)[O-])C(=O)CO/N=C1\\C[C@@H]2[C@H](CC[C@]3(C)[C@@H](O)CC[C@@H]23)c2ccc(O)cc21"
measurement_kind = "melting point"
reported_value = "125 to 127 °C (dec.)"

[[record]]
compound = "COc1ccc(C=C2c3ccccc3C(=O)c3ccccc32)cc1OCC(=O)N1CCC(CO[N+](=O)[O-])CC1"
measurement_kind = "melting point"
reported_value = "63 to 65 °C"

[[record]]
compound = "CC(C)(CNC(=O)CO/N=C1\\C[C@@H]2[C@H](CC[C@]3(C)[C@@H](O)CC[C@@H]23)c2ccc(O)cc21)SN=O"
measurement_kind = "melting point"
reported_value = "145 to 150 °C"

[[record]]
compound = "C[C@]12CC[C@@H]3c4ccc(OC(=O)c5ccccc5)cc4CC[C@H]3[C@@H]1CC[C@@H]2OC(=O)CCC(=O)OCCC1(S)C2CC3CC(C2)CC1C3 (stereo partly shown)"
measurement_kind = "melting point"
reported_value = "140 to 143 °C"

[[record]]
compound = "COc1ccc(/C=C/C(=O)Nc2ccccc2C(=O)OCC(=O)NCC(C)(C)SN=O)cc1OC"
measurement_kind = "melting point"
reported_value = "135 to 137 °C"

[[record]]
compound = "C[C@]12CC[C@@H]3c4ccc(OC(=O)CCC(=O)O[C@H]5CO[C@H]6[C@@H]5OC[C@H]6O)cc4CC[C@H]3[C@@H]1CC[C@@H]2O"
measurement_kind = "melting point"
reported_value = "79 to 80 °C"

[[record]]
compound = "C[C@]12CC[C@@H]3c4ccc(OC(=O)COCC(=O)O[C@H]5CO[C@H]6[C@@H]5OC[C@H]6O[N+](=O)[O-])cc4CC[C@H]3[C@@H]1CC[C@@H]2O"
measurement_kind = "melting point"
reported_value = "146 to 149 °C"

[[record]]
compound = "C[C@]12CC[C@@H]3c4ccc(O)cc4/C(=N/OCC(=O)OCCC4(S)C5CC6CC(C5)CC4C6)C[C@H]3[C@@H]1CC[C@@H]2O (stereo partly shown)"
measurement_kind = "melting point"
reported_value = "85 to 90 °C"

[[record]]
compound = "CC(C)(S)CNC(=O)CO/N=C1\\C[C@@H]2[C@H](CC[C@]3(C)[C@@H](O)CC[C@@H]23)c2ccc(O)cc21"
measurement_kind = "melting point"
reported_value = "87 to 90 °C"

[[record]]
compound = "C[C@]12CC[C@@H]3c4ccc(OC(=O)CCC(=O)O[C@H]5CO[C@H]6[C@@H]5OC[C@H]6O[N+](=O)[O-])cc4CC[C@H]3[C@@H]1CC[C@@H]2O [Example 32b]"
measurement_kind = "melting point"
reported_value = "163 to 165 °C"

[[record]]
compound = "C[C@]12CC[C@@H]3c4ccc(O)cc4/C(=N/OCC(=O)NCCO[N+](=O)[O-])C[C@H]3[C@@H]1CC[C@@H]2O"
measurement_kind = "melting point"
reported_value = "140 °C (dec.)"

[[record]]
compound = "C[C@]12CC[C@@H]3c4ccc(O)cc4/C(=N/OCC(=O)N4CCC(CO[N+](=O)[O-])CC4)C[C@H]3[C@@H]1CC[C@@H]2O"
measurement_kind = "melting point"
reported_value = "143 to 145 °C"

[[record]]
compound = "C[C@]12CC[C@@H]3c4ccc(O)cc4/C(=N/OCC(=O)OCCC4(SN=O)C5CC6CC(C5)CC4C6)C[C@H]3[C@@H]1CC[C@@H]2O (stereo partly shown)"
measurement_kind = "melting point"
reported_value = "75 to 80 °C"

[[record]]
compound = "C[C@]12CC[C@@H]3c4ccc(OC(=O)CCC(=O)OCCC5(S)C6CC7CC(C6)CC5C7)cc4CC[C@H]3[C@@H]1CC[C@@H]2O (stereo partly shown)"
measurement_kind = "melting point"
reported_value = "133 to 136 °C"

[[record]]
compound = "COc1ccc(C=C2c3ccccc3C(=NO)c3ccccc32)cc1O"
measurement_kind = "melting point"
reported_value = "140 °C"


Source listed as patent US20060009431A1.
